# experimentSummary: qHTS assay to identify small molecule antagonists of the estrogen related receptor (ERR) signaling pathway from Tox21 library - cell viability counter screen (AID 1224834); note: % is set by controls: 0 for no effect and ±100 for the full control effect; nearly all actives have a fitted effect of over 30% in size
# setupConditions: ERR reporter cells viability, CellTiter-Fluor, 17.5 h; series mostly up to 92.4 µM
Inconclusive results are not listed. Calls of active or inactive are those of the source. Calls come from the whole dose curve; as a rule, active = well fitted cell-killing curve with a large enough effect in the repeat runs; inconclusive = weak or mixed curves; inactive = flat fitted curve, though single readings scatter.
observedProperty: viability change, negative = cytotoxic

Solved cases below.
INSERT INTO measurements (molecule, result) VALUES
  ('O=C(O)CNCC(=O)O', '2.9% [at 8.39 µM] (inactive)'),
  ('C/C(=C(\CCOP(=O)(O)O)SC(=O)c1ccccc1)N(C=O)Cc1cnc(C)nc1N', '0.62% [at 8.39 µM] (inactive)'),
  ('CC(CSC(=O)c1ccccc1)C(=O)N1C[C@@H](Sc2ccccc2)C[C@H]1C(=O)O (some centres undefined)', '7.27% [at 19 µM] (inactive)');

Now look at this entry.
Ask: GET /values?readout=viability change, negative = cytotoxic&item= NCC(=O)O
Result: 2.45% [at 19 µM] (inactive)

====

# experimentSummary: qHTS RealTime-Glo MT Cell Viability Assay in HepG2 cells - 24 hour (AID 1224867); note: % is set by controls: 0 for no effect and ±100 for the full control effect; nearly all actives have a fitted effect of over 50% in size
# setupConditions: RealTime-Glo luminescence; series mostly up to 76.8 µM
# Text: U.S. Tox21 Program National Center for Advancing Translational Sciences [NCATS] NIH Chemical Genomics Center [NCGC] U.S. Environmental Protection Agency [EPA] National Institutes of Environmental Health Sciences [NIEHS] National Toxicology Program [NTP] U.S. Food and Drug Administration [FDA] Tox21 Assay Overview: Measure of cell viability is critical in the cell-base assay. Analysis of cell viability is necessary for the characterization of cell responses to cytotoxic drugs and environmental stress. […]
Inconclusive results are not listed. Active and inactive are the calls of the source. The call rests on the fitted dose curve; in most records, active means well fitted cell-killing curve with a large enough effect in the repeat runs; inconclusive means weak or mixed curves; inactive means flat fitted curve, though single readings scatter.
observedProperty: activity change, negative = cytotoxicity

INSERT INTO results (compound, result) VALUES
  ('CC/C=C\CCOC(=O)CC', 'inactive'),
  ('CC(=O)[O][Al]', 'inactive'),
  ('CC(C)Cc1ccc(C(C)C(=O)OCc2ccccn2)cc1 (stereo unspecified)', 'inactive'),
  ('CCCCC/C=C\C/C=C\CCCCCCCC(=O)NC(C)c1ccccc1 (stereo unspecified)', 'inactive');

Ask: Given CC1=CC=C(C(C)C)CC1 , state its recorded activity change, negative = cytotoxicity.
Result: inactive

Ask: Could you do the same for CCCCC(=O)OCC(=O)[C@H]1[C@H](C)C[C@H]2[C@@H]3C[C@H](F)C4=CC(=O)C=C[C@]4(C)[C@@]3(F)[C@@H](O)C[C@@]21C , please?
Result: inactive

Ask: Please answer likewise for CC(C)(CO)[N+](=O)[O-]
Result: inactive

Ask: Entry to check: O=C(O)c1ccco1
Result: inactive

Ask: Entry to check: CCOCC(O)COc1ccc(NC(=O)CC[S+](C)C)cc1 (stereo unspecified)
Result: inactive

Ask: Now consider CCCCCCCCO[C@@H]1O[C@H](CO)[C@@H](O)[C@H](O)[C@H]1O and answer again.
Result: inactive

Ask: // same read-out, input: CN1Cc2cc(C(=O)N3CCC(C4CCNCC4)CC3)ccc2NC(CC(=O)O)C1=O (stereo unspecified)
Result: inactive

Ask: Proceed to CC[N+]1(CC)CCC(=C(c2ccccc2)c2ccccc2)C1C (stereo unspecified)
Result: inactive

Ask: Again, but for CC(C)Nc1ccc(NC(C)C)c2c1C(=O)c1ccccc1C2=O
Result: inactive

Ask: Continue with CCOC(=O)COC(=O)c1cc(Oc2ccc(C(F)(F)F)cc2Cl)ccc1[N+](=O)[O-]
Result: inactive

Ask: Check O=C(OCCCCCCOC(=O)c1ccccc1)c1ccccc1 too.
Result: inactive
